Tested on: bloodstream forms of T. brucei 427-221a
Test: Alamar Blue growth inhibition assay, T. brucei bloodstream forms
Type: cell-based, Trypanosoma brucei
Conditions: IC50 ratio of cytotoxic to trypanocidal activity (selectivity index)
Listing of entries alongside the reported IC50 ratio T. brucei/HL-60.
QUANTITY KIND: IC50 ratio T. brucei/HL-60

[[record]]
compound = "O=c1cccccc1O"
operator = "="
measurement = 0.5

[[record]]
compound = "Cc1ccc(O)c(=O)cc1"
operator = "="
measurement = 2.0

[[record]]
compound = "Cc1cc(-c2ccccc2)c2ccc3c(-c4ccccc4)cc(C)nc3c2n1"
operator = ">"
measurement = 3.3

[[record]]
compound = "O=C(O)C(NCCNC(C(=O)O)c1ccccc1O)c1ccccc1O (stereo not shown)"
operator = "="
measurement = 2.7

[[record]]
compound = "c1ccc(-c2nc(-c3ccccn3)nc(-c3ccccn3)n2)nc1"
operator = "="
measurement = 3.2

[[record]]
compound = "c1cnc2c(c1)ccc1cccnc12"
operator = "="
measurement = 2.6

[[record]]
compound = "O=c1c(O)c(-c2ccc(O)c(O)c2)oc2cc(O)cc(O)c12"
operator = ">"
measurement = 6.1

